- Measurement notes: qHTS for Inhibitors of the Functional Ribonucleoprotein Complex (vRNP) of Lymphocytic Choriomeningitis Arenaviruses (LCMV): Viability assay - alamar blue signal for LCMV Primary Screen (AID 1347085); further: nearly all actives have a fitted effect of over 80% in size; further: potency means the concentration at half of the fitted maximal effect
- Applied conditions: alamar blue viability counter-screen, LCMV vRNP screen cells; series mostly up to 57.5 µM
Results filed as inconclusive are left out. Calls of active or inactive are those of the source. The call rests on the fitted dose curve; tested in HEK293 reporter line.
Readout label: Potency

Illustrative cases are given below, each with its answer.
> print(dat)
                                   compound  experimental.value
1  Cc1ccc(C(=O)Nc2ccc(CN3CCN(C)CC3)c(C(F)(F)F)c2)cc1C#Cc1cnc2cccnn12    3.43 µM (active)
2  O=C(Nc1ccncc1)C(=O)c1cn(Cc2ccc(Cl)cc2)c2ccccc12  0.0544 µM (active)
3  COC(=O)c1ccc2c(C(=Nc3ccc(N(C)C(=O)CN4CCN(C)CC4)cc3)c3ccccc3)c(O)[nH]c2c1    27.3 µM (active)
4  OC[C@H](Cc1ccccc1)Nc1nc(Oc2ccc3c(c2)CCC3)nc2c1ncn2Cc1ccc(-c2ccccc2)cc1            inactive
5  Cc1cccc(Nc2nc(N[C@@H]3CCCC[C@H]3N)ncc2C(N)=O)c1            inactive

input: Param item = COc1cc(Nc2ncc3c(n2)-c2ccc(Cl)cc2C(c2c(F)cccc2OC)=NC3)ccc1C(=O)O ; retrieve measured Potency.
output: inactive

input: Bench note: what Potency did Cc1ccc(C(N)=O)cc1Nc1nccc(-c2cn(C(C)C)c3cnccc23)n1 show?
output: 21.7 µM (active)

input: Which Potency is reported for this compound? C1CCC(NC2CCCCC2)CC1
output: inactive

input: Entry under review: Cc1cc(-c2ccccc2)nnc1NCCN1CCOCC1 . Reported Potency?
output: inactive

input: Fill in: Potency of CC(=O)NC(C)c1ccc(Oc2ccc(OC(C)C)cc2)cc1 (stereo not given) is ___
output: inactive

---

- Measurement notes: qHTS of pediatric cancer cell lines to identify multiple opportunities for drug repurposing: Primary screen for Rh18 cells (AID 1347102); further: nearly all actives have a fitted effect of over 65% in size
- Applied conditions: Rh18 rhabdomyosarcoma viability, CellTiter-Glo luminescence, 48 h; series mostly up to 46 µM
- Experimental: Drug repurposing or repositioning has been offered as a strategy for drug development in oncology programs. […] [1] Shen, M et al. Quantitative high-throughput phenotypic screening of pediatric cancer cell lines identifies multiple opportunities for drug repurposing. […] Cells were assayed in growth media at a density of 500-1,000 cells/well. […] After a 15 min incubation at room temperature, samples were analyzed for luminescence intensity using a ViewLux High-throughput CCD imager equipped with clear filters.
Results filed as inconclusive are left out. Active and inactive are the calls of the source. Calls follow the shape of the dose curve; as a rule, active = well fitted cell-killing curve with a large enough effect; inconclusive = small, poorly fitted or top-dose-only effect; inactive = flat fitted curve, though single readings scatter.
Respond with a class label; see T = active, F = inactive

Field: example entries. Status: answers known.
> print(dat)
                                   compound  label.class
1  COCC1(CO)C(=O)C2CCN1CC2 (stereo not drawn)            F
2  COc1ccc(CC2NCCc3cc(OC)c(OC)cc32)cc1OC (stereo not drawn)            F
3  COC(C)(C)CCCC(C)C/C=C/C(C)=C/C(=O)OC(C)C (stereo not drawn)            F

input: Lab log entry: O=[N+]([O-])c1c2ccccc2cc2ccccc12 — outcome as called in the assay?
output: F

---

- System: CP194
- Measurement notes: qHTS profiling for inhibitors of Plasmodium falciparum proliferation (AID 504749); further: nearly all actives have a fitted effect of over 60% in size
- Applied conditions: P. falciparum in erythrocytes, SYBR Green DNA, 72 h; series mostly up to 28.7 µM
Records with an inconclusive call do not appear. Active and inactive are the calls of the source. Calls come from the whole dose curve; as a rule, active = well fitted inhibition curve with a large enough effect; inconclusive = small, poorly fitted or top-dose-only effect; inactive = flat fitted curve, though single readings scatter.
Please answer using one outcome listed in Yes for active, No for inactive

> print(dat)
                                   compound  label.class
1  CN1C2CCC1CC(OC(=O)c1cc(Cl)cc(Cl)c1)C2 (stereo unspecified)           No

input: Kindly provide the recorded test outcome for the following compound: NC(=O)CN1CC(O)CC1=O (stereo unspecified)
output: No

input: What was the test verdict on CN(C)[C@@H]1C(=O)C(C(N)=O)=C(O)[C@@]2(O)C(=O)C3=C(O)c4c(O)cccc4[C@@](C)(O)[C@H]3[C@H](O)[C@@H]12 ?
output: No

input: Please state the recorded outcome for this compound: COC(=O)c1cncn1C(C)c1ccccc1 (stereo unspecified)
output: No

input: // return assay outcome for O=C(O)COc1ccccc1
output: No

input: // return assay outcome for CC(=O)[O][Hg][c]1ccccc1
output: Yes

input: # lookup: test call for CC[N+]1(CCOC(=O)C(O)(c2ccccc2)c2ccccc2)CCCCC1
output: No

input: GET /call?item= CC(=O)OCC1=C(C(=O)O)N2C(=O)[C@@H](N)[C@@H]2SC1 returns the recorded outcome of this test.
output: No

input: What classification did CCCCc1ccc(C(=O)O)nc1 end up with in this test?
output: No

input: Dear colleague, could you share the recorded outcome for CCCN1CCC[C@H](c2cccc(O)c2)C1 when you have a moment?
output: No

input: Just curious, what result did O=[N+]([O-])c1ccc([As](=O)(O)O)cc1 get here?
output: Yes

input: Dear all, I need the recorded test outcome for C=CCN1CC[C@]23CCCCC2[C@H]1Cc1ccc(O)cc13 (stereo partly specified) , thank you.
output: No

input: # fetch the recorded call for C1CCC(NC2CCCCC2)CC1 here
output: No

input: Hey, what did the test say about Cc1cc(O)ccc1Cl ?
output: No

input: For this compound, state the assay outcome: CC(C)NC(C)Cc1ccc(I)cc1 (stereo unspecified)
output: No

input: // param item: Cc1ccc(Cl)c(O)c1 ; yields the recorded call
output: No

---

- System: MKL-1
- Measurement notes: qHTS assay to identify novel small-molecules to repurpose for Merkel cell carcinoma treatment (AID 1296009); further: nearly all actives have a fitted effect of over 60% in size
- Applied conditions: MCC and control cell lines, CellTiter-Glo viability, 72 h; series mostly up to 46 µM
Inconclusive results are not listed. Calls of active or inactive are those of the source. The call rests on the fitted dose curve; in most records, active means well fitted inhibition curve with a large enough effect; inconclusive means small, poorly fitted or top-dose-only effect; inactive means flat fitted curve, though single readings scatter.
Respond only with the outcome that fits, drawn from T = active, F = inactive

Consider the following illustrative entries.
Smiles str	Measurement target	Label class
C=CCON=C(C[C@H]1O[C@@H]2O[C@]3(C)CC[C@@H]4[C@H](C)CC[C@@H]([C@H]1C)[C@@]24OO3)[C@H]1O[C@@H]2O[C@]3(C)CC[C@H]4[C@H](C)CC[C@@H]([C@@H]1C)[C@@]24OO3	MKL-1	T
O=S(=O)(F)Cc1ccccc1	MKL-1	F
CCOC(=O)c1cncn1[C@H](C)c1ccccc1	MKL-1	F
Cc1c(C(=O)c2cccc3ccccc23)c2cccc3c2n1[C@H](CN1CCOCC1)CO3	MKL-1	T
O=S(=O)(O)C(F)(F)C(F)(F)C(F)(F)C(F)(F)C(F)(F)C(F)(F)C(F)(F)C(F)(F)F	MKL-1	F

# ---- query molecule ----
input: What was the test verdict on Fc1cc(Br)ccc1CBr ?
output: F

---

- Measurement notes: qHTS of pediatric cancer cell lines to identify multiple opportunities for drug repurposing: Primary screen for BT-37 cells (AID 1347094)
- Applied conditions: BT-37 viability, CellTiter-Glo luminescence, 48 h; series mostly up to 57.3 µM
Results filed as inconclusive are left out. The source made the active and inactive calls. The call rests on the fitted dose curve; in most records, active means well fitted cell-killing curve with a large enough effect; inconclusive means small, poorly fitted or top-dose-only effect; inactive means flat fitted curve, though single readings scatter.
Pick from active, inactive when you respond.

Example entries begin here.
> print(dat)
                                   molecule  label.class
1                       CN(C)NC(=O)CCC(=O)O     inactive
2                              CCOCCOC(C)=O     inactive
3  O=C(O)c1cc(Oc2ccc(C(F)(F)F)cc2Cl)ccc1[N+](=O)[O-]     inactive
4  O=C(Nc1ccncc1)C(=O)c1cn(Cc2ccc(Cl)cc2)c2ccccc12       active
5              S=C(SSC(=S)N1CCCCC1)N1CCCCC1       active

input: Test call for this molecule, please: c1ccc(CCCN2CCN(CCOC(c3ccccc3)c3ccccc3)CC2)cc1
output: active

input: # outcome recorded in this test, key = COc1ccc2c(c1)[C@]13CCCCC1C(C2)N(C)CC3 (stereo not given in full)
output: inactive

---

- Measurement notes: qHTS for Inhibitors of the Functional Ribonucleoprotein Complex (vRNP) of Lassa (LASV) Arenavirus: LASV Primary Screen - GLuc reporter signal (AID 1347082); further: nearly all actives have a fitted effect of over 60% in size
- Applied conditions: LASV minigenome vRNP, Gaussia luciferase reporter; series mostly up to 57.5 µM
Records with an inconclusive call do not appear. Active and inactive are the calls of the source. Calls follow the shape of the full dose curve; tested in HEK293 reporter line.
Select the correct class. Options are y = active, n = inactive and nothing else.

Molecule	Label class
O=C(O)CCCOc1ccc(Cl)cc1Cl	n
CC(C)(C(=O)NCC(F)(F)C(F)(F)F)C(=O)N[C@@H]1C(=O)Nc2ccccc2-c2ccccc21	y
Cc1ccc(NC(=O)c2cccc(C(C)(C)C#N)c2)cc1Nc1ccc2ncn(C)c(=O)c2c1	n
c1ccc(C2(c3ccccc3)CC2C2=NCCN2)cc1 (stereo not drawn)	n
C[C@@H]1CC[C@@]2(OC1)O[C@H]1C[C@H]3[C@@H]4CC=C5C[C@@H](O[C@@H]6O[C@H](CO)[C@@H](O[C@@H]7O[C@@H](C)[C@H](O)[C@@H](O)[C@@H]7O)[C@H](O)[C@@H]6O[C@@H]6O[C@@H](C)[C@H](O)[C@@H](O)[C@@H]6O)CC[C@]5(C)[C@@H]4CC[C@]3(C)[C@@H]1[C@H]2C	n
O=C(O)c1ccccn1	n
CN(C)C1CCN(C(=O)c2ccc(NC(=O)Nc3nc(N4CCOCC4)nc(N4CCOCC4)n3)cc2)CC1	y

Now let's try a different one.
input: For O=C(O)CC[N+](=O)[O-] , which call appears in the assay record?
output: n
